Could you please report measured Km for the items listed next?
Biological target: CATec3 Y20F (Escherichia coli, UniProt P00484, Y20F)
Format: biochemical
Conditions: CATec3 Y20F, 50° C., 2 mM acetyl-CoA; average±standard deviation
# value in mM; strip the unit string

Request - read-out Km | tested on CATec3 Y20F (Escherichia coli, UniProt P00484, Y20F) | compound COc1cccc(CO)c1 [3-Methoxybenzyl alcohol]
10

Input OCc1ccco1 [Furfuryl alcohol]
37.1

Input CC(C)=CCC/C(C)=C\CO [Nerol]
4.1

Input OCCc1ccccc1 [Phenylethyl alcohol]
10.6

Input CC(C)CCO [Isoamyl alcohol]
59.9

Input O=C(N[C@H](CO)[C@H](O)c1ccc([N+](=O)[O-])cc1)C(Cl)Cl [Chloramphenicol]
0.2

Input OCc1ccccc1 [Benzyl alcohol]
12.2

Input CC(C)=CCC/C(C)=C/CO [Geraniol]
4.1

Input CCCCCO [Pentanol]
64.7

Input CC(C)=CCCC(C)CCO (centres unmarked) [Citronellol]
3.2

Input CCCCCCO [Hexanol]
29.2
